Target or system Androgen receptor (Rattus norvegicus, UniProt P15207); recorded quantity IC50.
reportedMetric: IC50

compound | experimentalResult
CC(O)(COC(=O)c1ccccc1C(F)(F)F)c1cc2cc(NC(=O)C(F)(F)F)c(C(F)(F)F)cc2[nH]1 (stereo not given) | 0.15 µM
CC(O)(CS(=O)(=O)c1ccc(F)cc1)c1cc2cc(C#N)c(C(F)(F)F)cc2[nH]1 (stereo not given) | > 6.9 µM
COc1ccc(C(=O)OCC(C)(O)c2cc3cc([N+](=O)[O-])c(C(F)(F)F)cc3[nH]2)cc1 (stereo not given) | 6.4 µM
CC(O)(COC(=O)c1ccc(F)cc1)c1cc2cc(C#N)c(C(F)(F)F)cc2[nH]1 (stereo not given) | 1.2 µM
CC(O)(CSc1ccc(Cl)cc1)c1cc2cc(Cl)c(C(F)(F)F)cc2[nH]1 (stereo not given) | 0.18 µM

###

- measuredTarget: Androgen receptor (Rattus norvegicus)
- Sequence (P15207 whole entry S389L): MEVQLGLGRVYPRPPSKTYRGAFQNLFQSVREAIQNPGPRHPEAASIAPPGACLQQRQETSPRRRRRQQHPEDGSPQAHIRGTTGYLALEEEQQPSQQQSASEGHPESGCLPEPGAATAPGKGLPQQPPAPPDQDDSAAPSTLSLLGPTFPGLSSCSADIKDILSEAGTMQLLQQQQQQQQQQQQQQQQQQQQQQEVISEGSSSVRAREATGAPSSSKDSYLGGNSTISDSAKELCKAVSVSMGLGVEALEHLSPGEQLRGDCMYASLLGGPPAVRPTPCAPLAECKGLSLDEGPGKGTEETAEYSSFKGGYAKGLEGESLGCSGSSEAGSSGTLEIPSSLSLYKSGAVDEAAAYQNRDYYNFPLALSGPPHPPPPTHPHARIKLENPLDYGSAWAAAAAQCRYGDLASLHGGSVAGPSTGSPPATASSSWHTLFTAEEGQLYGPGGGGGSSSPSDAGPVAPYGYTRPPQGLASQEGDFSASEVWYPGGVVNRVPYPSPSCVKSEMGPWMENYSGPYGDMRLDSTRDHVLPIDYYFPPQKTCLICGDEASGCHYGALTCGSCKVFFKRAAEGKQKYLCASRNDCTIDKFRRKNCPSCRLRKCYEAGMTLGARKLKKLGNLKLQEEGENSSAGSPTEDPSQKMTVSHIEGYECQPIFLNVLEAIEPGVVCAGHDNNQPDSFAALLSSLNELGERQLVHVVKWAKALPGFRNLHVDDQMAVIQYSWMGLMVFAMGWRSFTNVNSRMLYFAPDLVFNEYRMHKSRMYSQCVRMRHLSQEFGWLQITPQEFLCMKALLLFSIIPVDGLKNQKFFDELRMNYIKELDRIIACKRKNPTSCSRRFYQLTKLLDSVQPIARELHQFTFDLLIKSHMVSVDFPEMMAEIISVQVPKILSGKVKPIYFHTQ
IC50 under 3 µM gets Criterion met, anything at or over 3 µM gets Criterion not met.

molecule | assignedLabel
CC(O)(CSc1ccc(Cl)c(Cl)c1)c1cc2cc([N+](=O)[O-])c(C(F)(F)F)cc2[nH]1 (configuration not stated) | Criterion met
CN(C)c1ccc(C(=O)OCC(C)(O)c2cc3cc([N+](=O)[O-])c(C(F)(F)F)cc3[nH]2)cc1 (configuration not stated) | Criterion met
CC(O)(CSc1ccccc1)c1cc2cc(Cl)c(C(F)(F)F)cc2[nH]1 (configuration not stated) | Criterion met
CC(O)(COC(=O)c1ccccc1)c1cc2cc(C#N)c(C(F)(F)F)cc2[nH]1 (configuration not stated) | Criterion met
CC(O)(COC(=O)c1ccc([N+](=O)[O-])cc1)c1cc2cc([N+](=O)[O-])c(C(F)(F)F)cc2[nH]1 (configuration not stated) | Criterion met
CC(C)(C)c1ccc(C(=O)OCC(C)(O)c2cc3cc([N+](=O)[O-])c(C(F)(F)F)cc3[nH]2)cc1 (configuration not stated) | Criterion not met
